target: T1, mFZD2 CRD-Fc (mouse, UniProt Q9JIP6 29-178, limits assumed); experiment: fluorescence titration, 50 nM labelled peptide vs FZD CRD-Fc dilutions (Monolith NT.115)
T1 construct: domain: CRD; bought (R&D Systems); not shown: Fc part
Ends that are not written are not given here.
metric: EC50 (nM)

> print(dat)
                                     binder  value.observed
1  LPSDDLEFWCHVMY-NH2 (also: 5-carboxyfluorescein (5FAM) label, site not given here, synthetic) [5FAM-Fz7-21]              60
